Biological target: Human mPGES-1 (Homo sapiens)
Sequence (O14684 1-152): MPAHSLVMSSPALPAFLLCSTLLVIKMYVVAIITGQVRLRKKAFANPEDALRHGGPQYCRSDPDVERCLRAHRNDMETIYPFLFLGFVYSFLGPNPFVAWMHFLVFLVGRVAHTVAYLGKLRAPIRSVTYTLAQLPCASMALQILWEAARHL
Reported property: pIC50
Notebook: values listed as pIC50 are -log10 of the concentration (mol/L).

What is its pIC50 for Human mPGES-1 (Homo sapiens)? Entry: "Cc1cccc2ccc(N3CC[C@H](C(=O)N[C@H]4CCO[C@H](CO)C4)C(C)(C)C3)nc12"
8.71
